- assay target: Human HER3, endogenous, on human cancer cell lines (SK-Br-3, MCF7, BT-474) (human, UniProt P21860 20-1342)
- Sequence (P21860 20-1342): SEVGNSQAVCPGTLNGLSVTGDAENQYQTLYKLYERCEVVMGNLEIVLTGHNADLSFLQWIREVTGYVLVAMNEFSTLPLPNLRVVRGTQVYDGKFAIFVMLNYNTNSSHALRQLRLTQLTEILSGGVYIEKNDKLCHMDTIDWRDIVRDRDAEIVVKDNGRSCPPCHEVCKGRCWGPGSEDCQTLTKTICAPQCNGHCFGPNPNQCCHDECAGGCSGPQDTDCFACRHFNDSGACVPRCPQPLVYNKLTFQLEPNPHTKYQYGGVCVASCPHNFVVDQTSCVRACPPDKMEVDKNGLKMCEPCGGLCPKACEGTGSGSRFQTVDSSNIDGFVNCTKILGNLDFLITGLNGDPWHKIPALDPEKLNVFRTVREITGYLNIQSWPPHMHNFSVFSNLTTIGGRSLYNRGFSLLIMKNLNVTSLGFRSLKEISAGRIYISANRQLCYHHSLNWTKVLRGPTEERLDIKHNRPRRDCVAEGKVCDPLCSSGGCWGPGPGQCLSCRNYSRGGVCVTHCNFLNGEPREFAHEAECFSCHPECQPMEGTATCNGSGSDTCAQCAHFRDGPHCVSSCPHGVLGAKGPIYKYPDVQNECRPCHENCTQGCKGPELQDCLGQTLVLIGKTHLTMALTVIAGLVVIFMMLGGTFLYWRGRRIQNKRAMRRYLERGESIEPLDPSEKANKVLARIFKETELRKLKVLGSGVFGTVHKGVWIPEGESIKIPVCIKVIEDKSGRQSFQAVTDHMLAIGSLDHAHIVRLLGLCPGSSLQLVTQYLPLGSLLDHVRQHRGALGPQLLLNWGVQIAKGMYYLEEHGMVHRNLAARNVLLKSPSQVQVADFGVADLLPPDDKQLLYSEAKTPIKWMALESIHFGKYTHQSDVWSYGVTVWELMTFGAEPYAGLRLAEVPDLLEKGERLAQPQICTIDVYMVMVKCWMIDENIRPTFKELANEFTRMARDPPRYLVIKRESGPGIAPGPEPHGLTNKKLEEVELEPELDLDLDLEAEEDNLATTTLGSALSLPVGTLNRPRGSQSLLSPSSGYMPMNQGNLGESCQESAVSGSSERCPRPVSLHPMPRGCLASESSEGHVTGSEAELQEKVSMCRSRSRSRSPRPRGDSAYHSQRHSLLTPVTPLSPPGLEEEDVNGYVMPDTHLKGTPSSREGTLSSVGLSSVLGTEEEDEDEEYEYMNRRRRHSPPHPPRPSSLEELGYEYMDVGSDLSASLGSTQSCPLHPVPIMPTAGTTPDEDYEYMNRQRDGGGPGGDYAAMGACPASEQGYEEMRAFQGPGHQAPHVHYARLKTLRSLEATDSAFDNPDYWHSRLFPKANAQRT
- assay name: cell-based or functional assay
We begin with a simple list: items and their reported MCF7 pHER3 % inhibition.

| binder | MCF7 pHER3 % inhibition, % |
| --- | --- |
| MOR13766 (antibody, human IgG1, kappa, V domains shown, tested as IgG) VH: QVQLVQSGAEVKKPGESLKISCKGSGYSFTTTWVAWVRQMPGKGLEWMGIIYPGSSDTIYSPSFQGQVTISADKSISTAYLQWSSLKASDTAMYYCARVHIIQPPSAWSYNAMDVWGQGTLVTVSS VL: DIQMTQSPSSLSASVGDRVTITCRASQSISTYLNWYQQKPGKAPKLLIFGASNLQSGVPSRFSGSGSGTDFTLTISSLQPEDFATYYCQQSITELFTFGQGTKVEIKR | 72 |
| MOR14535 (antibody, human IgG1, kappa, V domains shown, tested as IgG) VH: EVQLVQSGAEVKKPGESLKISCKGSGYSFTTTWVAWVRQMPGKGLEWMGIIYPGLSDTIYSPSFQGQVTISADKSISTAYLQWSSLKASDTAMYYCARVHIIQPPSAWSYNAMDVWGQGTLVTVSS VL: DIQMTQSPSSLSASVGDRVTITCRASQSISTYLNWYQQKPGKAPKLLIYGASNLQSGVPSRFSGSGSGTDFTLTISSLQPEDFATYYCQQSITELFTFGQGTKVEIKR | 73 |
